All figures here come from patent US20230416347A1.

# assay.system: rVλ6Wil fibrils
# run.description: EuLISA on rVλ6Wil fibrils (FIG. 5A)
Examples of binders with documented EC50 follow.

binder | units | EC50
VH8/VL4 (antibody, V domains shown) VH: QVQLQESGPGLVKPSETLSLTCTVSGFSLSSYGVSWIRQPPGKGLEWIGVIWGDGSTNYHPNLMSRVTISKDTSKSQFSLKLSSVTAADTAVYYCVTLDYWGQGTSVTVSS VL: DVVMTQSPLSLPVTLGQPASISCRSSQSLVHRNGNTYLHWFQQRPGQSPRLLIYKVSNRFSGVPDRFSGSGSGTDFTLKISRVEAEDVGVYFCFQTTYVPNTFGGGTKLEIK | nM | 16
VH10/VL4 (antibody, V domains shown) VH: QVQLQESGPGLVKPSETLSLTCTVSGFSLSSYGVSWIRQPPGKGLEWLGVIWGDGSTNYHPNLMSRLSISKDTSKSQVLLKLSSVTAADTAVYYCVTLDYWGQGTSVTVSS VL: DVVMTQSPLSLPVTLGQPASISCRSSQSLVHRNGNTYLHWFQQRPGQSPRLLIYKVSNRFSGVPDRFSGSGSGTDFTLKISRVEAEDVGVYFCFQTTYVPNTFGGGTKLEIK | nM | 17
VH6/VL3 (antibody, V domains shown) VH: QVQLQESGPGLVKPSETLSLTCTVSGFSLSSYGVSWVRQPPGKGLEWLGVIWGDGSTNYHPNLMSRLSISKDTSKNQFSLKLSSVTAADTATYYCVTLDYWGQGTSVTVSS VL: DVVMTQSPLSLPVTLGQPASISCRSSQSLVHRNGNTYLHWYLQRPGQSPRLLIYKVSNRFSGVPDRFSGSGSGTDFTLKISRVEAEDVGLYFCFQTTYVPNTFGGGTKLEIK | nM | 95
VH7/VL4 (antibody, V domains shown) VH: QVQLQESGPGLVKPSETLSLTCTVSGFSLSSYGVSWIRQPPGKGLEWIGVIWGDGSTNYHPNLMSRVTISKDTSKNQVLLKLSSVTAADTAVYYCVTLDYWGQGTSVTVSS VL: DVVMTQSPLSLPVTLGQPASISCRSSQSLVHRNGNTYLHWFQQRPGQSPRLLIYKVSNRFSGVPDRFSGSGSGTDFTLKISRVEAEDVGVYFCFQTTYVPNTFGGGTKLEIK | nM | 75
